# System: Mus musculus
# TEST DETAILS: Dose normalized AUC in mouse at 1 mg/kg, po
# Assay type: ADME, organism-based
# Set-up: dose 1 mg/kg, route oral
# CONDITIONS: in vivo
ASSAY READOUT: AUC/dose (µM·kg·h/mg)

[[record]]
item_smiles = "Cc1cc(C2CCN(C(=O)[C@@H]3CN(C(C)(C)C)C[C@H]3c3ccc(F)cc3F)CC2)n(-c2ccc(F)c(Cl)c2)n1"
unit_symbol = "µM·kg·h/mg"
recorded_measurement = 0.26

[[record]]
item_smiles = "Cc1cc(C2CCN(C(=O)[C@@H]3CN(C(C)(C)C)C[C@H]3c3ccc(F)cc3F)CC2)n(-c2ccc(Cl)cc2Cl)n1"
unit_symbol = "µM·kg·h/mg"
recorded_measurement = 0.31

[[record]]
item_smiles = "Cc1cc(C2CCN(C(=O)[C@@H]3CN(C(C)(C)C)C[C@H]3c3ccc(F)cc3F)CC2)n(-c2ccc(Cl)cc2F)n1"
unit_symbol = "µM·kg·h/mg"
recorded_measurement = 0.25


I. Cc1cc(C2CCN(C(=O)[C@@H]3CN(C(C)(C)C)C[C@H]3c3ccc(F)cc3F)CC2)n(-c2ccc(F)c(F)c2)n1
II. CC(C)(C)N1C[C@@H](C(=O)N2CCC(c3ccnn3-c3ccc(F)c(Cl)c3)CC2)[C@H](c2ccc(F)cc2F)C1
III. Cc1nc(C2CCN(C(=O)[C@H]3CN(C(C)(C)C)C[C@@H]3c3ccc(F)cc3F)CC2)n(-c2ccc(Cl)c(C)c2)n1
IV. CC(C)(C)N1C[C@@H](C(=O)N2CCC(c3nnnn3-c3ccc(Cl)cc3)CC2)[C@H](c2ccc(F)cc2F)C1
[Q] Number of compounds to sort: 4. Sort criterion: AUC/dose, ascending. Return the labels ranked in the requested order, please.
[A] IV, III, II, I
(IV: 0.01 µM·kg·h/mg, III: 0.03 µM·kg·h/mg, II: 0.05 µM·kg·h/mg, I: 0.2 µM·kg·h/mg)

I. Cc1cc(C2CCN(C(=O)[C@@H]3CN(C(C)(C)C)C[C@H]3c3ccc(F)cc3F)CC2)n(-c2ccc(Cl)cc2)n1
II. Cc1nc(C2CCN(C(=O)[C@@H]3CN(C(C)(C)C)C[C@H]3c3ccc(F)cc3F)CC2)n(-c2ccc(Cl)cc2)n1
[Q] Which is greater in AUC/dose, the first item I or the second item II ? Lab note: record the label of whichever item you select.
[A] I

a. Cc1cc(C2CCN(C(=O)[C@@H]3CN(C(C)(C)C)C[C@H]3c3ccc(F)cc3F)CC2)n(-c2ccc(Cl)c(Cl)c2)n1
b. O=C([C@@H]1CNC[C@H]1c1ccc(F)cc1F)N1CCC(c2ccnn2-c2ccc(F)c(Cl)c2)CC1
[Q] Which item exceeds the other in AUC/dose, a or b ? Answer = label.
[A] a
(a: 0.26 µM·kg·h/mg, b: 0.16 µM·kg·h/mg)

P. Cc1cc(C2CCN(C(=O)[C@@H]3CN(C(C)(C)C)C[C@H]3c3ccc(F)cc3F)CC2)n(-c2ccc(F)cc2F)n1
Q. Cc1cc(C2CCN(C(=O)[C@@H]3CN(C(C)(C)C)C[C@H]3c3ccc(F)cc3F)CC2)n(-c2ccc(Cl)cc2C)n1
R. Cc1cc(-n2nc(C3CCN(C(=O)[C@@H]4CN(C(C)(C)C)C[C@H]4c4ccc(F)cc4F)CC3)nc2C)ccc1Cl
[Q] Order the records so the highest AUC/dose appears first and the lowest last. Lab note: record answer as labels in requested order.
[A] P, Q, R

A. Cc1cc(C2CCN(C(=O)[C@@H]3CNC[C@H]3c3ccc(F)cc3F)CC2)n(-c2cc(Cl)ccc2Cl)n1
B. Cc1cc(C2CCN(C(=O)[C@@H]3CN(C(C)(C)C)C[C@H]3c3ccc(F)cc3F)CC2)n(-c2cc(Cl)ccc2Cl)n1
C. Cc1cc(C2CCN(C(=O)[C@@H]3CN(C(C)(C)C)C[C@H]3c3ccc(F)cc3F)CC2)n(-c2ccc(Cl)c(C)c2)n1
D. Cc1cc(C2CCN(C(=O)[C@@H]3CN(C(C)(C)C)C[C@H]3c3ccc(F)cc3F)CC2)n(-c2ccc(C)c(Cl)c2)n1
[Q] Ranking field: AUC/dose; order: falling. Use the labels to give the ranking in the order requested.
[A] B, C, A, D
(B: 0.19 µM·kg·h/mg, C: 0.1 µM·kg·h/mg, A: 0.04 µM·kg·h/mg, D: 0.01 µM·kg·h/mg)
